From: patent US20230265151A1

biological target: hGLP-1R (Homo sapiens, UniProt P43220); test: cell-based or functional assay
*1 amine or outer side, *2 acyl side, *3 side chain or, on linkers, in order; H or OH if unused. Where no end group is shown, it is not given here. Side-chain parts run from the residue outwards. [ ]: non-standard residue; d: D form. The star is where a group is joined. Decanoyl(10-(4-HOOC-PhO)) = O=C(O)c1ccc(OCCCCCCCCCC(=O)*)cc1; αMePhe(2-F) = C[C@](N)(Cc1ccccc1F)C(=O)O; γGlu = O=C(O)[C@H](CCC(=O)[*:2])N[*:1]; αMeY = C[C@](N)(Cc1ccc(O)cc1)C(=O)O; αMeL = CC(C)C[C@](C)(N)C(=O)O; Orn = NCCC[C@H](N)C(=O)O; AEEA = NCCOCCOCC(=O)O; Aib = CC(C)(N)C(=O)O
Listed next: entries and their corresponding log10 of cAMP EC50.
result.type: log10 of cAMP EC50 (log10 of the value in nM)

{"columns": ["binder", "log10 of cAMP EC50"],
 "data": [
  ["YXEGTXTSDXXIXLDXIAQXKFIXXLIEGGPSSGAPPPSK (Y-Aib-EGT-αMeF(2F)-TSD-4Pal-Aib-I-αMeL-LD-Orn-IAQ-Aib-K((2-[2-(2-Amino-ethoxy)-ethoxy]-acetyl)-(γ-Glu)-CO-(CH2)12-CO2H)FI-(D-Glu)-αMeY-LIEGGPSSGAPPPSK((2-[2-(2-Amino-ethoxy)-ethoxy]-acetyl)-(γ-Glu)-CO-(CH2)12-CO2H)-NH2) [Example 341]", -0.48],
  ["YXEGTXTSDXXIXLDXIAQXKFIXXLIKGGPSSGAPPPS (Y-Aib-EGT-αMeF(2F)-TSD-4Pal-Aib-I-αMeL-LD-Orn-IAQ-Aib-K(2-[2-(2-Amino-ethoxy)-ethoxy]-acetyl)2-(γ-Glu)-(11-(4-carboxyphenoxy)undecanoyl)FI-(D-Glu)-αMeY-LIK((2-[2-(2-Amino-ethoxy)-ethoxy]-acetyl)2-(γ-Glu)-(11-(4-carboxyphenoxy)undecanoyl)GGPSSGAPPPS-NH2)) [Example 331]", -0.36],
  ["YXEGTXTSDVXIXLDXKAQXKFIXXLIEGGPSSGAPPPS (Y-Aib-EGT-αMeF(2F)-TSDV-Aib-I-αMeL-LD-Orn-K((2-[2-(2-Amino-ethoxy)-ethoxy]-acetyl)2-(10-(4-carboxyphenoxy)decanoyl))AQ-Aib-K((2-[2-(2-Amino-ethoxy)-ethoxy]-acetyl)2-(10-(4-carboxyphenoxy)decanoyl))FI-(D-Glu)-αMeY-LIEGGPSSGAPPPS-NH2) [Example 394]", -0.65],
  ["YXEGTXTSDKXIXLDXKAQXEXIXXLIEGGPSSGAPPPS (Y-Aib-EGT-αMeF(2F)-TSDK((2-[2-(2-Amino-ethoxy)-ethoxy]-acetyl)2-(γ-Glu)-CO-(CH2)10-CH3)-Aib-I-αMeL-LD-Orn-K((2-[2-(2-Amino-ethoxy)-ethoxy]-acetyl)2-(γ-Glu)-CO-(CH2)10-CH3)AQ-Aib-E-αMeF-I-(D-Glu)-αMeY-LIEGGPSSGAPPPS-NH2) [Example 429]", -0.94],
  ["Y[Aib]EGT[αMePhe(2-F)]TSDV[Aib]I[αMeL]LD[Orn]K([AEEA-γGlu-Decanoyl(10-(4-HOOC-PhO))])AQ[Aib]EFI[dE][αMeY]LIK([AEEA-γGlu-Decanoyl(10-(4-HOOC-PhO))])GGPSSGAPPPS-NH2 [Example 379]", -0.77],
  ["YXEGTXTSDXXIXLDXKAQXEFIXXLIEGGPSSGAPPPSK (Y-Aib-EGT-αMeF(2F)-TSD-4Pal-Aib-I-αMeL-LD-Orn-K((2-[2-(2-Amino-ethoxy)-ethoxy]-acetyl)-(γ-Glu)-CO-(CH2)10-CH3)AQ-Aib-EFI-(D-Glu)-αMeY-LIEGGPSSGAPPPSK((2-[2-(2-Amino-ethoxy)-ethoxy]-acetyl)-(γ-Glu)-CO-(CH2)10-CH3)-NH2) [Example 428]", -0.99],
  ["YXEGTXTSDXXIXLDXKAQXXFIXXLIKGGPSSGAPPPS (Y-Aib-EGT-αMeF(2F)-TSD-4Pal-Aib-I-αMeL-LD-Orn-K((2-[2-(2-Amino-ethoxy)-ethoxy]-acetyl)3-(γ-Glu)-CO-(CH2)10-CH3)AQ-Aib-Orn-FI-(D-Glu)-αMeY-LIK((2-[2-(2-Amino-ethoxy)-ethoxy]-acetyl)3-(γ-Glu)-CO-(CH2)10-CH3)GGPSSGAPPPS-NH2) [Example 434]", -1.08],
  ["YXEGTXTSDKXIXLDXKAQXEFIXXLIEGGPSSGAPPPS (Y-Aib-EGT-αMeF(2F)-TSDK((2-[2-(2-Amino-ethoxy)-ethoxy]-acetyl)3-(γ-Glu)-CO-(CH2)10-CH3)-Aib-I-αMeL-LD-Orn-K((2-[2-(2-Amino-ethoxy)-ethoxy]-acetyl)3-(γ-Glu)-CO-(CH2)10-CH3)AQ-Aib-EFI-(D-Glu)-αMeY-LIEGGPSSGAPPPS-NH2) [Example 421]", -1.24],
  ["Y[Aib]EGT[αMePhe(2-F)]TSDV[Aib]I[αMeL]LD[Orn]IAQ[Aib]K([AEEA-γGlu-Decanoyl(10-(4-HOOC-PhO))])FI[dE][αMeY]LIK([AEEA-γGlu-Decanoyl(10-(4-HOOC-PhO))])GGPSSGAPPPS-NH2 [Example 382]", -0.21],
  ["YXEGTXTSDXXIXLDXKAQXEXIXXLIEGGPSSGAPPPSK (Y-Aib-EGT-αMeF(2F)-TSD-4Pal-Aib-I-αMeL-LD-Orn-K((2-[2-(2-Amino-ethoxy)-ethoxy]-acetyl)3-(Y-Glu)-CO-(CH2)10-CH3)AQ-Aib-E-αMeF-I-(D-Glu)-αMeY-LIEGGPSSGAPPPSK((2-[2-(2-Amino-ethoxy)-ethoxy]-acetyl)3-(γ-Glu)-CO-(CH2)10-CH3)-NH2) [Example 439]", -0.96],
  ["YXEGTXTSDXXIXLDXKAQXKFIXXLIXGGPSSGAPPPS (Y-Aib-EGT-αMeF(2F)-TSD-4Pal-Aib-I-αMeL-LD-Orn-K((2-[2-(2-Amino-ethoxy)-ethoxy]-acetyl)2-(γ-Glu)-(10-(4-carboxyphenoxy)decanoyl))AQ-Aib-K((2-[2-(2-Amino-ethoxy)-ethoxy]-acetyl)2-(γ-Glu)-(10-(4-carboxyphenoxy)decanoyl))FI-(D-Glu)-αMeY-LI-Orn-GGPSSGAPPPS-NH2) [Example 408]", -0.64],
  ["YXEGTXTSDXXIXLDXKAQXTFIXXLIKGGPSSGAPPPS (Y-Aib-EGT-αMeF(2F)-TSD-4Pal-Aib-I-αMeL-LD-Orn-K((2-[2-(2-Amino-ethoxy)-ethoxy]-acetyl)2-(γ-Glu)-CO-(CH2)10-CH3)AQ-Aib-TFI-(D-Glu)-αMeY-LIK((2-[2-(2-Amino-ethoxy)-ethoxy]-acetyl)2-(γ-Glu)-CO-(CH2)10-CH3)GGPSSGAPPPS-NH2) [Example 419]", -0.88]
]}
